# test-target: Muscarinic acetylcholine receptor M5 (Homo sapiens)
# Sequence (P08912 whole entry): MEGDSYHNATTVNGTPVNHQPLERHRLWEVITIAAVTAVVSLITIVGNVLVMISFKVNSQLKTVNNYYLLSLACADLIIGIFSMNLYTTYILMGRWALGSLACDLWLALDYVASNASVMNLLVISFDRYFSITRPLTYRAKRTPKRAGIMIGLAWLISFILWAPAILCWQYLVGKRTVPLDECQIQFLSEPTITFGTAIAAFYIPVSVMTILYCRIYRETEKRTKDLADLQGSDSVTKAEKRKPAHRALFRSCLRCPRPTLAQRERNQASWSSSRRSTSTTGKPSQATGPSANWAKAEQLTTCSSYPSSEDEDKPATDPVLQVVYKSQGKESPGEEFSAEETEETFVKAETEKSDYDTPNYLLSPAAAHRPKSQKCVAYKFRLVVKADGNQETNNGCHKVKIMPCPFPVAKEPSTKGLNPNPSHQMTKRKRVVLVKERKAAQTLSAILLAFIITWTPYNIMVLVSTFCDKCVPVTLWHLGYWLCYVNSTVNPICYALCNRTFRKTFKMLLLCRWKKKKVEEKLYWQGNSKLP
# assay-method-text: Antagonist activity at human muscarinic M5 receptor expressed in CHO cells in the presence of acetylcholine by calcium mobilisation assay
pIC50: −log10 of the molar value.
Label scheme for pIC50: lower than 7 is n, 7 and above is y.

Some entries whose results are on file:
{"compound": "O=C(Nc1ccc2scnc2c1)C1CCN(S(=O)(=O)c2cccnc2)CC1", "assigned-label": "y"}
{"compound": "O=C(Nc1ccc2scnc2c1)C1CCN(S(=O)(=O)c2ccc(Cl)nc2)CC1", "assigned-label": "n"}

Lookup: Can C[C@H]1CN(S(=O)(=O)c2ccc3c(c2)CCO3)CC[C@@H]1C(=O)Nc1ccc2scnc2c1 (racemic) be said to have pIC50 at or above 7?
Found: n
